EZH2 (Homo sapiens, UniProt Q15910) pIC50 data
Sequence (Q15910 whole entry): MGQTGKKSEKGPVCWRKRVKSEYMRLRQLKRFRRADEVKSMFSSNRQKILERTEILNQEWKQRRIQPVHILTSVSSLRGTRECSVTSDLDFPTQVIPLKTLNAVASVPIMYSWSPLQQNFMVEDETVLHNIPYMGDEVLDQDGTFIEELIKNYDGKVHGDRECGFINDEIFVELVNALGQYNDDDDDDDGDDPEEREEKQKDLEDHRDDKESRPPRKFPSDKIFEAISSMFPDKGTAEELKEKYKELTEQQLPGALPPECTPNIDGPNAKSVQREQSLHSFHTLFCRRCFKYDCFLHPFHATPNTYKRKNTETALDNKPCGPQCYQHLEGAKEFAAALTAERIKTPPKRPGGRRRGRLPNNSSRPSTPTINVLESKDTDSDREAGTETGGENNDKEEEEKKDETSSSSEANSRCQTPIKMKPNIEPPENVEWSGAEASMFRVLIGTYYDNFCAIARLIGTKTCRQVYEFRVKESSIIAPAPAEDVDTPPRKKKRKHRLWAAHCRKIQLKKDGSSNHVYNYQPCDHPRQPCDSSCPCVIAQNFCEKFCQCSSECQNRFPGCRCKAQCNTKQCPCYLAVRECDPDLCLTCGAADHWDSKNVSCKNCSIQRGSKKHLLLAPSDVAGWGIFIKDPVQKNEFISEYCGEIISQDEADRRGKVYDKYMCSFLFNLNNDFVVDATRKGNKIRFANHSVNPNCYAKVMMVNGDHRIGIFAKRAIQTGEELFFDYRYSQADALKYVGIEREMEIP
Sequence (O75530 whole entry partner): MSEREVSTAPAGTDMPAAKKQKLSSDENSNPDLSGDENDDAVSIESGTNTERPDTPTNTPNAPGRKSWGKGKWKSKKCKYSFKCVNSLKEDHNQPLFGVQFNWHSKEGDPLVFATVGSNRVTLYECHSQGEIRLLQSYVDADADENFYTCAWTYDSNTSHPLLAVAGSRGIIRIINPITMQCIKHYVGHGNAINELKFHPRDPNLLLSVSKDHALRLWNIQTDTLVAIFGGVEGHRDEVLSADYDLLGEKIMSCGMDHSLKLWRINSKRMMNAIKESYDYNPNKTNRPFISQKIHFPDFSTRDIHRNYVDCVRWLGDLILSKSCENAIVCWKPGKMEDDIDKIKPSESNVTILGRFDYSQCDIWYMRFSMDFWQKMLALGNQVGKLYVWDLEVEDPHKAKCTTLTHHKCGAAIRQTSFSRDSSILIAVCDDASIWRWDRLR
Sequence (Q15022 whole entry partner): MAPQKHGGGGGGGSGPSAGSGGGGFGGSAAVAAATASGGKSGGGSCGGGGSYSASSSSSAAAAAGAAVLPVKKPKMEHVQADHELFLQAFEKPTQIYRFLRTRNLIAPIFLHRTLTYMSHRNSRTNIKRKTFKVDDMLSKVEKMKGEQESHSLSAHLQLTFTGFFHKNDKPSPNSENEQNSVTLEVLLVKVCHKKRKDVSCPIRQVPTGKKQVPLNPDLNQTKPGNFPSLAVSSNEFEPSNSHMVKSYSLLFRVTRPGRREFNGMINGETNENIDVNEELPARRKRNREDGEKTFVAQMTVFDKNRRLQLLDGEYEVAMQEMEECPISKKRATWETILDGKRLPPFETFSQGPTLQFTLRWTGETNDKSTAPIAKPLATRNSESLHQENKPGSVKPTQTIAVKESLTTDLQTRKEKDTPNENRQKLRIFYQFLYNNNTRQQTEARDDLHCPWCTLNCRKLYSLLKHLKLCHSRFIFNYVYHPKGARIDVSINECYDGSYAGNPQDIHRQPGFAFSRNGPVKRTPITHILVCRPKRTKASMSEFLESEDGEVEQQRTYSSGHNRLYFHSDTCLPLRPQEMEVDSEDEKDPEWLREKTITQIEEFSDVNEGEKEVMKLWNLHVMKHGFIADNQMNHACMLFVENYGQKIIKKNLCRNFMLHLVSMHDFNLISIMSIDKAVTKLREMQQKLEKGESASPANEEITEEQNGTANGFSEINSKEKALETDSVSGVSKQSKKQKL
Expect pIC50 as a plain number equal to -log10 of the molar concentration.

Below, 3 compounds whose answers are already recorded.
CHEMICAL_STRUCTURE	pIC50
COc1cccc2nc(N3CCN(C)CC3)cc(NC3CCN(Cc4ccccc4)CC3)c12	4.79
COc1cccc2nc(N3CCCCC3)cc(NC3CCN(Cc4ccccc4)CC3)c12	4.49
COc1cccc2nc(N3CCCN(C)CC3)cc(NC3CCN(C(C)C)CC3)c12	4.76

Lab entry: EZH2 (Homo sapiens, UniProt Q15910) assay, compound COc1cc2nc(N3CCCN(C)CC3)cc(NC3CCN(C)CC3)c2cc1OC , pIC50 = 4.75

With EZH2 (Homo sapiens, UniProt Q15910) as the test system, COc1cccc(Nc2cc(N3CCCN(C)CC3)nc3cccc(OC)c23)c1 showed pIC50 of 4.77

----------
Target: SMYD3 (Homo sapiens)
Sequence (Q9H7B4 whole entry, species assumed): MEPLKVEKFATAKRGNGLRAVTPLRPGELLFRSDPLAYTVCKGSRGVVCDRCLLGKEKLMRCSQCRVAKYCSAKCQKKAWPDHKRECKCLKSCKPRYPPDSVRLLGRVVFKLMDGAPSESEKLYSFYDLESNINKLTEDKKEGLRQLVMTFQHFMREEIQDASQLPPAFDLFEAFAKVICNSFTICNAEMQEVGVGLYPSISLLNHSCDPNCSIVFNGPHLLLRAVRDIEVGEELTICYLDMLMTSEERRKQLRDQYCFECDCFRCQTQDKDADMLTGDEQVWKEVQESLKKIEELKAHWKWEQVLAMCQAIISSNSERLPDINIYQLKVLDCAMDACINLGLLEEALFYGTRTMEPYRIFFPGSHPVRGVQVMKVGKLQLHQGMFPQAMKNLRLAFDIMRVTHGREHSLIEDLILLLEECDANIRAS
OBSERVABLE: pIC50
// returns pIC50 (minus log10 of molar concentration), number only

pIC50 for SMYD3 (Homo sapiens) with input COc1cccc2nc(N3CCCN(C)CC3)cc(NC3CCN(C)CC3)c12 [Compound 5k] equals 4.45

----------
Target: SETDB1 (Homo sapiens)
OBSERVABLE: IC50 (µM)
Reply numerically in µM, unit not repeated.

For COc1cccc2nc(N3CCCN(C)CC3)cc(NC3CCN(C)CC3)c12 [Compound 5k] on SETDB1 (Homo sapiens), measured IC50 was 27

----------
System: MDA-MB-231
Assay: MTT cell growth inhibition, MDA-MB-231
Type: cell-based
Conditions: Homo sapiens, MDA-MB-231, 96 h, read-out: IC50 MDA-MB-231
Each item that follows carries a reported IC50.
Write it as a number; the unit µM goes unstated.

Record COc1cccc(Nc2cc(N3CCCN(C)CC3)nc3cccc(OC)c23)c1 [Compound 5s] , field IC50: 16.9

IC50 reading for COc1cccc2nc(N3CCN(C)CC3)cc(NC3CCN(Cc4ccccc4)CC3)c12 [Compound 5a] : 11.9

Sure, the documented IC50 for COc1ccc2nc(N3CCCN(C)CC3)cc(NC3CCN(C)CC3)c2c1OC [Compound 9d] is 12.4

Record COc1cccc2nc(N3CCCN(C)CC3)cc(NCCN3CCN(C)CC3)c12 [Compound 5j] . Reported IC50: 12.4

The recorded IC50 for entry COc1ccc(Nc2cc(N3CCCN(C)CC3)nc3cccc(OC)c23)c(C)c1 [Compound 5q] equals 14.5

----------
Catalogue of compounds with associated pIC50
Test system: MDA-MB-231
Assay: MTT cell growth inhibition, MDA-MB-231
Format: cell-based
Settings: Homo sapiens, MDA-MB-231, 96 h, read-out: IC50 MDA-MB-231
# log scale: pIC50 equals minus log10 of the concentration in mol/L

Look over these answered cases.
CHEMICAL_STRUCTURE	pIC50
COc1cc(OC)c2nc(N3CCCN(C)CC3)cc(NC3CCN(C)CC3)c2c1	4.88
COc1cccc2nc(N3CCOCC3)cc(NC3CCN(Cc4ccccc4)CC3)c12	4.85
COc1cccc2nc(N3CCCN(C)CC3)cc(Nc3ccc(C(C)C)cc3)c12	4.88
COc1cccc2nc(N3CCCCC3)cc(NC3CCN(Cc4ccccc4)CC3)c12	5.25

Next, consider the following compound.
Short answer for COc1cccc2nc(N3CCCN(C)CC3)cc(NC3CCN(Cc4ccccc4)CC3)c12 : pIC50 was 5.34

----------
The following are reported IC50 results, target or system EZH2 (Homo sapiens, UniProt Q15910).
Write the answer as a number in µM, unit excluded.

Past entries and their recorded results:
CHEMICAL_STRUCTURE	UNIT_LABEL	IC50
COc1ccc(Nc2cc(N3CCCN(C)CC3)nc3cccc(OC)c23)c(C)c1	µM	34.8
COc1ccccc1Nc1cc(N2CCCN(C)CC2)nc2cccc(OC)c12	µM	17.5
COc1ccc2c(NC3CCN(C)CC3)cc(N3CCCN(C)CC3)nc2c1OC	µM	13.7
COc1cccc2nc(N3CCCN(C)CC3)cc(Nc3ccc(N(C)C)cc3)c12	µM	27.6
COc1cccc2nc(N3CCCN(C)CC3)cc(Nc3cncnc3)c12	µM	35.3
COc1cccc2nc(N3CCCN(C)CC3)cc(NCCC(C)C)c12	µM	11.5

Sample COc1cc(OC)c2c(NC3CCN(C)CC3)cc(N3CCCN(C)CC3)nc2c1 ; IC50 observed: 6.7

Quick note, IC50 for COc1ccc2nc(N3CCCN(C)CC3)cc(NC3CCN(C)CC3)c2c1OC landed at 5.6

Kindly note the recorded IC50 for COc1cccc2nc(N3CCCN(C)CC3)cc(NC3CCN(Cc4ccccc4)CC3)c12 , which is 6.6

----------
Target: EZH2 (Homo sapiens, UniProt Q15910)
Test: AlphaLISA assay for EZH2
Format: biochemical
Conditions: enzymatic assay; means of at least three measurements
The following molecules are listed with their measured pIC50 values.
Please express pIC50 as -log10 of the molar concentration.

Take a look at these entries with their results.
CHEMICAL_STRUCTURE	TARGET_UNDER_TEST	VALUE_REPORTED
COc1cccc2nc(N3CCCN(C)CC3)cc(Nc3cc(C(F)(F)F)cc(C(F)(F)F)c3)c12	EZH2 (Homo sapiens, UniProt Q15910)	4.47
COc1cccc2nc(N3CCCN(C)CC3)cc(Nc3ccc(C(C)C)cc3)c12	EZH2 (Homo sapiens, UniProt Q15910)	4.58
COc1ccc(Nc2cc(N3CCCN(C)CC3)nc3cccc(OC)c23)cc1	EZH2 (Homo sapiens, UniProt Q15910)	4.71

Documented pIC50 of COc1cccc2nc(Nc3ncccn3)cc(NC3CCN(Cc4ccccc4)CC3)c12 : 4.76

----------
Target: UniProt:Q15910
OBSERVABLE: IC50 (µM)
Give the value, in units of µM, as a plain number.

Check out these entries, answers already filled in.
COMPOUND	UNIT_LABEL	VALUE_REPORTED
COc1cccc2nc(N3CCCN(C)CC3)cc(Nc3ccc(C)cc3)c12 [Compound 5r]	µM	39.7
COc1cccc2nc(Nc3cc(C(F)(F)F)cc(C(F)(F)F)c3)cc(NC3CCN(Cc4ccccc4)CC3)c12 [Compound 5f]	µM	21.6
COc1cc(OC)c2nc(N3CCCN(C)CC3)cc(NC3CCN(C)CC3)c2c1 [Compound 9h]	µM	14.9
COc1cccc2nc(Nc3ccc([N+](=O)[O-])cc3)cc(NC3CCN(Cc4ccccc4)CC3)c12 [Compound 5e]	µM	29.4
COc1ccc(OC)c2c(NC3CCN(C)CC3)cc(N3CCCN(C)CC3)nc12 [Compound 9f]	µM	9.2
COc1cccc2nc(N3CCCN(C)CC3)cc(NCCN3CCN(C)CC3)c12 [Compound 5j]	µM	4.2
COc1cccc2nc(N3CCCN(C)CC3)cc(NC3CCOCC3)c12 [Compound 5l]	µM	2.8
COc1cccc2nc(N3CCOCC3)cc(NC3CCN(Cc4ccccc4)CC3)c12 [Compound 5b]	µM	23

Attention now turns to another entry.
Value (IC50, UniProt:Q15910) for record COc1cccc2nc(N3CCCN(C)CC3)cc(Nc3ccc([N+](=O)[O-])cc3)c12 [Compound 5u] = 26.2

----------
Target: UniProtKB Q99873
Sequence (Q99873 whole entry, species assumed): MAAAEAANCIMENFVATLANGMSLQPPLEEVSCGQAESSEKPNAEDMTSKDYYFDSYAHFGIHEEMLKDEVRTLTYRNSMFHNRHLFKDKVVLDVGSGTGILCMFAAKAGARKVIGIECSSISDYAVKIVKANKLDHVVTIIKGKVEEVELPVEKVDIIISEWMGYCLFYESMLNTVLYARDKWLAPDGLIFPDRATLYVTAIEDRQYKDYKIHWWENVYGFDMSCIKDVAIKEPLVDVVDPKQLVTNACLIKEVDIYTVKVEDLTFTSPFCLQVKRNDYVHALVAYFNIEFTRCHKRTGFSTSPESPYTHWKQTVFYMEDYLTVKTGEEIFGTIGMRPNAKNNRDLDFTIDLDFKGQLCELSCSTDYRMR
OBSERVABLE: IC50 (µM)
Just the number in µM, nothing appended.

Lab note: measured IC50 of COc1cccc2nc(N3CCCN(C)CC3)cc(NC3CCN(C)CC3)c12 [Compound 5k] was 28.8

----------
System: MDA-MB-231
Assay: MTT cell growth inhibition, MDA-MB-231
Format: cell-based
Conditions: Homo sapiens, MDA-MB-231, 96 h, read-out: IC50 MDA-MB-231
Reported pIC50 values for the following compounds.
Bear in mind: pIC50 is minus log10 of a mol/L concentration; give just that figure.

Here are 3 compounds together with their reported answers.
CHEMICAL_STRUCTURE	TARGET_UNDER_TEST	pIC50
COc1cccc2nc(N3CCCN(C)CC3)cc(NC3CCN(C)CC3)c12	MDA-MB-231	5.61
COc1ccc(OC)c2c(NC3CCN(C)CC3)cc(N3CCCN(C)CC3)nc12	MDA-MB-231	4.91
COc1cccc2nc(N3CCCN(C)CC3)cc(Nc3ccc([N+](=O)[O-])cc3)c12	MDA-MB-231	4.83

Now look at this one.
pIC50 in this record for COc1cccc2nc(N3CCCN(C)CC3)cc(Nc3ccc(N(C)C)cc3)c12 : 4.79

----------
Biological target: SUV39H1 (Homo sapiens)
Sequence (O43463 1-412): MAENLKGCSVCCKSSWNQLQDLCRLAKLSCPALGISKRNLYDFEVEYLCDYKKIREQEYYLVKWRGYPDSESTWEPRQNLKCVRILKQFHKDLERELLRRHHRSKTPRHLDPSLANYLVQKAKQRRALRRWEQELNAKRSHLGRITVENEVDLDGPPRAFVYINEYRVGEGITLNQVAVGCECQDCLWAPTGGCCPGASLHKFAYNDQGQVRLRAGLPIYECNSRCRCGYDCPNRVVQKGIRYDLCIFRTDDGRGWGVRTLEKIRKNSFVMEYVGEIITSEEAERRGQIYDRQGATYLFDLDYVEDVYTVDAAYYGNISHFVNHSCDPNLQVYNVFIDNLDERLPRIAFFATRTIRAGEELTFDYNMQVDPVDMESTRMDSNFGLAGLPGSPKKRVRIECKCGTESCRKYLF
Assay: Enzyme selectivity assay, SUV39H1
Assay type: biochemical
Conditions: means of at least three measurements
OBSERVABLE: pIC50
Friendly reminder that pIC50 comes from taking -log10 of the concentration in mol/L.

Summary for this compound, COc1cccc2nc(N3CCCN(C)CC3)cc(NC3CCN(C)CC3)c12 [Compound 5k] : pIC50 is 4.67
